# TESTED_ON: F508delCFTR (Homo sapiens, UniProt P13569, DEL508-508)
# Construct: expressed in transfected cells; host or cells: CFBE41o- human lung-derived epithelial cell line, doxycycline-inducible expression
# Sequence (P13569 with tags, fused parts or gaps DEL508-508): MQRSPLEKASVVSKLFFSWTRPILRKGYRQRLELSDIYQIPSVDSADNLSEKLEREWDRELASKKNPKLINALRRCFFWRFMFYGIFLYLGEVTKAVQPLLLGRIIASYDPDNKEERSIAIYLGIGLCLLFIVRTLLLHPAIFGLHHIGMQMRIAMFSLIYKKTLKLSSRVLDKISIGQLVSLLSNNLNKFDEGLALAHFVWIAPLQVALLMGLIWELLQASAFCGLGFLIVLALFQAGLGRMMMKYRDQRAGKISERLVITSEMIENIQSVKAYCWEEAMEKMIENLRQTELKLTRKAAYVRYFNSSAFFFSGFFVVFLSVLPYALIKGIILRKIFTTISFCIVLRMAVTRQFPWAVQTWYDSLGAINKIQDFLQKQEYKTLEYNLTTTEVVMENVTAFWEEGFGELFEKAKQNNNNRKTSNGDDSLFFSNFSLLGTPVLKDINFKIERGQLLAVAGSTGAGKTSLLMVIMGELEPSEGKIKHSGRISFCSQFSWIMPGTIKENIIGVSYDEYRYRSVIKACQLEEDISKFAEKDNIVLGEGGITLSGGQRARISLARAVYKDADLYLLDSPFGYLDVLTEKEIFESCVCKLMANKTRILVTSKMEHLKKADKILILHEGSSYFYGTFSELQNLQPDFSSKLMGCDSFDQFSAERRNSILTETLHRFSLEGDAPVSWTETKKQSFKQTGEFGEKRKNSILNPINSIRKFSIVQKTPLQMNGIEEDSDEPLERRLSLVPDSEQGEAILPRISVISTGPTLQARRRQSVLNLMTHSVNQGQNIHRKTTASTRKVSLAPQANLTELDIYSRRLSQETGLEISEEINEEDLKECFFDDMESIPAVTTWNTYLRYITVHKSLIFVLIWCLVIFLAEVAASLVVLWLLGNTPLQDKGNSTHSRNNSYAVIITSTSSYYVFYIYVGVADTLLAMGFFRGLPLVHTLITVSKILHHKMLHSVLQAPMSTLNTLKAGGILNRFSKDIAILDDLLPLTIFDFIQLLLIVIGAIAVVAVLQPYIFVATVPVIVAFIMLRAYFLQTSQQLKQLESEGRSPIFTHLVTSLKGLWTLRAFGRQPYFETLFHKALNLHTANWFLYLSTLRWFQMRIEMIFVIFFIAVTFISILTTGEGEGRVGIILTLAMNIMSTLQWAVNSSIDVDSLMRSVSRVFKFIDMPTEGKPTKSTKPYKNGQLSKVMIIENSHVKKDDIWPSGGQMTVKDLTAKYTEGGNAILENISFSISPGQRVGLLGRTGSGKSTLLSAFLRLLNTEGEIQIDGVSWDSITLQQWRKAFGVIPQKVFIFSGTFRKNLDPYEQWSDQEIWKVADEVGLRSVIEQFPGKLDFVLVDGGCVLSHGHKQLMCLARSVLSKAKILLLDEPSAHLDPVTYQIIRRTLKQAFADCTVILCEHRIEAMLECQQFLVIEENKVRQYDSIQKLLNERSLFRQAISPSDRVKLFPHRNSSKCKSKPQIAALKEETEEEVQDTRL
# PROTOCOL: Cell Surface Expression-Horse Radish Peroxidase (CSE-HRP) assay in CFBE41o-F508delCFTR-HRP cells
# Type: cell-based
# STUDY_CONDITIONS: without co-corrector; normalized to on-plate positive control corrector (2 μM)
RECORDED_METRIC: Maximum % activity (without co-corrector) (%)

COc1cncc([C@H]2C[C@@]2(C(=O)NS(=O)(=O)c2cccc3nc(C)ccc23)c2cc(C)ccc2OC)n1 (single isomer, unassigned)
939
COc1cnc([C@H]2C[C@@]2(C(=O)NS(=O)(=O)c2cccc3nc(C)ccc23)c2cc(C)ccc2OC)cn1 (single isomer, unassigned)
790
COCc1cccc([C@H]2C[C@@]2(C(=O)NS(=O)(=O)c2cccc3nc(C)ccc23)c2cc(C)ccc2OC)n1
812
COc1ncc([C@H]2C[C@@]2(C(=O)NS(=O)(=O)c2cccc3nc(C)ccc23)c2cc(C)ccc2OC)cn1 (single isomer, unassigned)
419
COc1ccc(C)cc1[C@]1(C(=O)NS(=O)(=O)c2cccc3nc(C)ccc23)C[C@@H]1c1cccnc1OC (single isomer, unassigned)
951
COc1ccc(C)cc1[C@]1(C(=O)NS(=O)(=O)c2cccc3nc(C)ccc23)C[C@@H]1c1cnc(C)cn1 (racemic) [Example 89]
447

###

A collection of molecules and their measured Emax (% Dual)
# TESTED_ON: F508del/F508del CFTR (Homo sapiens, UniProt P13569, DEL508-508)
# Construct: cells isolated from CF patients with the homozygous mutation; endogenous in cells; host or cells: primary human bronchial epithelial (hBE) cells from CF patients homozygous for F508del
# Sequence (P13569 with tags, fused parts or gaps DEL508-508): as above
# PROTOCOL: Trans-Epithelial Current Clamp (TECC) assay using primary human bronchial epithelial cells
# Format: cell-based
# STUDY_CONDITIONS: maximum percent activity relative to positive control (co-corrector 0.15 μM + potentiator 0.45 μM = 100%); primary hBE cells F508del/F508del
RECORDED_METRIC: Emax (% Dual)

CCOc1ncccc1[C@H]1C[C@@]1(C(=O)NS(=O)(=O)c1cccc2nc(C)ccc12)c1cc(C)ccc1OC (single isomer, unassigned) [Example 71]
288 % Dual
COc1ccc(C)cc1[C@@]1(C(=O)NS(=O)(=O)c2cccc3nc(C)ccc23)C[C@H]1c1ccccc1F (single isomer, unassigned) [Example 26]
293 % Dual
COc1ccc(C)cc1[C@]1(C(=O)NS(=O)(=O)c2cccc3nc(C)ccc23)C[C@@H]1c1cnc(OC)c(C)c1 [Example 103]
266 % Dual
COc1ccc(C)cc1[C@@]1(C(=O)NS(=O)(=O)c2cccc3nc(C)ccc23)C[C@H]1c1cccnc1OC [Example 49]
321 % Dual
COc1ccc(C)cc1[C@]1(C(=O)NS(=O)(=O)c2cccc3nc(C)ccc23)C[C@@H]1c1cnc(OC)c(OC)n1 [Example 80]
275 % Dual
COc1ccc(C)cc1[C@]1(C(=O)NS(=O)(=O)c2cccc3nc(C)ccc23)C[C@@H]1c1ccccc1C [Example 34]
459 % Dual

###

# TESTED_ON: F508delCFTR (Homo sapiens, UniProt P13569, DEL508-508)
# Construct: expressed in transfected cells; host or cells: CFBE41o- human lung-derived epithelial cell line, doxycycline-inducible expression
# PROTOCOL: Cell Surface Expression-Horse Radish Peroxidase (CSE-HRP) assay in CFBE41o-F508delCFTR-HRP cells
# Type: cell-based
# STUDY_CONDITIONS: without co-corrector; CFBE41o-F508delCFTR-HRP cells, 18-24 hours at 33° C., luminescence; read-out: EC50 (without co-corrector)
pEC50: −log10 of the molar value.
A collection of compounds and their measured pEC50
RECORDED_METRIC: pEC50

COc1ccc(C)cc1[C@]1(C(=O)NS(=O)(=O)c2cccc3nc(C)ccc23)C[C@@H]1c1cncc(C)n1 (single isomer, unassigned) [Example 46]
5.63
COc1ccc(C)cc1[C@]1(C(=O)NS(=O)(=O)c2cccc3nc(C)ccc23)C[C@@H]1c1cccc(C(F)F)n1 [Example 77]
5.78
COc1cncc([C@H]2C[C@@]2(C(=O)NS(=O)(=O)c2cccc3nc(C)ccc23)c2cc(C)ccc2OC)n1 (single isomer, unassigned) [Example 75]
5.78
COc1nccc([C@H]2C[C@@]2(C(=O)NS(=O)(=O)c2cccc3nc(C)ccc23)c2cc(C)ccc2OC)n1 (single isomer, unassigned) [Example 98]
5.84
COc1ccc(C)cc1[C@]1(C(=O)NS(=O)(=O)c2cccc3nc(C)ccc23)C[C@@H]1c1cccc(C)n1 [Example 96]
5.70
CCOc1ccc([C@H]2C[C@@]2(C(=O)NS(=O)(=O)c2cccc3nc(C)ccc23)c2cc(C)ccc2OC)cn1 [Example 58]
5.41
COc1ccc([C@H]2C[C@@]2(C(=O)NS(=O)(=O)c2cccc3nc(C)ccc23)c2cc(C)ccc2OC)cn1 [Example 32]
5.53
COc1ccc(C)cc1[C@@]1(C(=O)NS(=O)(=O)c2cccc3nc(C)ccc23)C[C@H]1c1cccnc1OC [Example 49]
5.70
CCOc1ncccc1[C@@H]1C[C@]1(C(=O)NS(=O)(=O)c1cccc2nc(C)ccc12)c1cc(C)ccc1OC (single isomer, unassigned) [Example 73]
5.84
COc1ccc(C)cc1[C@@]1(C(=O)NS(=O)(=O)c2cccc3nc(C)ccc23)C[C@H]1c1ccccc1 (single isomer, unassigned) [Example 2]
6.20
COc1ccc([C@@H]2C[C@]2(C(=O)NS(=O)(=O)c2cccc3nc(C)ccc23)c2cc(C)ccc2OC)cc1 (single isomer, unassigned) [Example 16]
6.48
COc1ccc(C)cc1[C@]1(C(=O)NS(=O)(=O)c2cccc3nc(C)ccc23)C[C@@H]1c1cccc(C(C)C)n1 [Example 57]
5.95
COc1cccc([C@H]2C[C@@]2(C(=O)NS(=O)(=O)c2cccc3nc(C)ccc23)c2cc(C)ccc2OC)c1 (single isomer, unassigned) [Example 28]
6.02
COc1ccc(C)cc1[C@@]1(C(=O)NS(=O)(=O)c2cccc3nc(C)ccc23)C[C@H]1c1cncc(F)c1 (racemic) [Example 42]
5.73
COc1ccc(C)cc1[C@]1(C(=O)NS(=O)(=O)c2cccc3nc(C)ccc23)C[C@@H]1c1ccc(C(F)(F)F)cc1 (single isomer, unassigned) [Example 18]
6.70
COc1ccc(C)cc1[C@@]1(C(=O)NS(=O)(=O)c2cccc3nc(C)ccc23)C[C@H]1c1cccc(C(F)(F)F)c1 (single isomer, unassigned) [Example 24]
6.23
COc1ccc([C@@H]2C[C@]2(C(=O)NS(=O)(=O)c2cccc3nc(C)ccc23)c2cc(C)ccc2OC)c(OC)n1 (single isomer, unassigned) [Example 93]
6.57
COc1ccc(C)cc1[C@]1(C(=O)NS(=O)(=O)c2cccc3nc(C)ccc23)C[C@@H]1c1ccccc1C(F)(F)F (racemic) [Example 29]
6.56
COc1ccc([C@H]2C[C@@]2(C(=O)NS(=O)(=O)c2cccc3nc(C)ccc23)c2cc(C)ccc2OC)c(C)n1 [Example 72]
5.48
COc1ccc(C)cc1[C@@]1(C(=O)NS(=O)(=O)c2cccc3nc(C)ccc23)C[C@H]1c1cncc(F)c1 (single isomer, unassigned) [Example 53]
5.40
COc1ccc(C)cc1[C@]1(C(=O)NS(=O)(=O)c2cccc3nc(C)ccc23)C[C@@H]1c1cccc(OC(C)C)n1 [Example 97]
6.01
COc1ccc(C)cc1[C@@]1(C(=O)NS(=O)(=O)c2cccc3nc(C)ccc23)C[C@H]1c1cncc(C)n1 (racemic) [Example 35]
5.77
COc1ccc(C)cc1[C@]1(C(=O)NS(=O)(=O)c2cccc3nc(C)ccc23)C[C@@H]1c1cnc(OC)c(F)c1 [Example 76]
5.67
COc1ccc(C)cc1[C@]1(C(=O)NS(=O)(=O)c2cccc3nc(C)ccc23)C[C@@H]1c1ccc(N(C)C)nc1 [Example 68]
5.56

###

# TESTED_ON: F508delCFTR (Homo sapiens, UniProt P13569, DEL508-508)
# Construct: expressed in transfected cells; host or cells: CFBE41o- human lung-derived epithelial cell line, doxycycline-inducible expression
# PROTOCOL: Cell Surface Expression-Horse Radish Peroxidase (CSE-HRP) assay in CFBE41o-F508delCFTR-HRP cells
# Format: cell-based
# STUDY_CONDITIONS: without co-corrector; CFBE41o-F508delCFTR-HRP cells, 18-24 hours at 33° C., luminescence; read-out: EC50 (without co-corrector)
pEC50: −log10 of the molar value.
A collection of compounds and their measured pEC50
RECORDED_METRIC: pEC50

COc1ccc([C@@H]2C[C@]2(C(=O)NS(=O)(=O)c2cccc3nc(C)ccc23)c2cc(C)ccc2OC)c(OC)n1 (racemic) [Example 79]
6.33
COc1cnc([C@H]2C[C@@]2(C(=O)NS(=O)(=O)c2cccc3nc(C)ccc23)c2cc(C)ccc2OC)cn1 (single isomer, unassigned) [Example 48]
5.75
COc1ccc([C@@H]2C[C@]2(C(=O)NS(=O)(=O)c2cccc3nc(C)ccc23)c2cc(C)ccc2OC)cn1 [Example 33]
5.90
